Counter-ions that a name gives are not always drawn.
# reported melting point; entries follow
Answer in °C, number only, no unit symbol.

CC(=O)CN1CCC(CCN2CCN(c3cc(Cl)ccc3C)CC2)CC1.Cl.Cl = 259
Cc1cccc(N2CCN(CC[C@H]3CC[C@H](NC(=O)CC#N)CC3)CC2)c1 = 175

Prompt: // fetch melting point given entry CC(=O)CN1CCC(CCN2CCN(c3cccc(Cl)c3Cl)CC2)CC1 (as salt: hydrochloride) [Example 737, dihydrochloride]
Completion: 281

Prompt: Indicate the recorded melting point value for this molecule: CCC(=O)C(=O)N[C@H]1CC[C@H](CCN2CCN(c3ccccc3F)CC2)CC1
Completion: 156

Prompt: Provide one value: measured melting point of N#Cc1cccc(N2CCN(CC[C@H]3CC[C@H](NC(=O)C4=CCCC4)CC3)CC2)c1
Completion: 191

Prompt: Note melting point for the molecule shown: N#CCCC(=O)N[C@H]1CC[C@H](CCN2CCN(c3ccc(F)cc3F)CC2)CC1
Completion: 165

---

// melting point lookup, one value per entry
Express it in °C; write the number only.

CCCNC(=O)C[C@H]1CC[C@H](CCN2CCN(c3ccccc3F)CC2)CC1 = 150

Prompt: Name the recorded melting point of the compound listed here: N#CCC(=O)N[C@H]1CC[C@H](CCN2CCN(c3csc4cc(C(F)(F)F)ccc34)CC2)CC1
Completion: 216

Prompt: Give melting point for the following compound: CC(=O)CN1CCC(CCN2CCN(c3cccc(C(F)(F)F)c3F)CC2)CC1.Cl.Cl
Completion: 270

Prompt: Using the record for CS(=O)(=O)CC(=O)N[C@H]1CC[C@H](CCN2CCN(c3cccc(C(F)(F)F)c3)CC2)CC1 , state its measured melting point.
Completion: 158

Prompt: Indicate its recorded melting point; the compound in question is N#CCC(=O)N[C@H]1CC[C@H](CCN2CCN(c3ccc(F)c(Cl)c3F)CC2)CC1
Completion: 198

Prompt: Please report melting point for the following compound: COCCCC(=O)N[C@H]1CC[C@H](CCN2CCC(c3cccc(C(F)(F)F)c3)CC2)CC1
Completion: 134

---

property label: melting point (°C)
Numbers only here, please. The scale is °C.

Recorded melting point, per entry:
O=C(CC1C=CCC1)N[C@H]1CC[C@H](CCN2CCN(c3cccc(C(F)(F)F)c3)CC2)CC1 (stereo partly drawn) = 154
COCCCC(=O)N[C@H]1CC[C@H](CCN2CCN(c3ccc(F)c(C(F)(F)F)c3)CC2)CC1 = 177
Cc1cc(N2CCN(CC[C@H]3CC[C@H](NC(=O)CCCC#N)CC3)CC2)c(Cl)cc1F = 158
N#CCC(=O)N[C@H]1CC[C@H](CCN2CCN(c3ccc(Cl)c(C(F)(F)F)c3)CC2)CC1 = 187
N#CCCCC(=O)N[C@H]1CC[C@H](CCN2CCN(c3ccc(Cl)c(Cl)c3)CC2)CC1 = 151

Prompt: Please give the documented melting point of CCOCC(=O)N[C@H]1CC[C@H](CCN2CCN(c3ccccc3Cl)CC2)CC1
Completion: 108

---

Measured melting point of individual entries

// below: answered compounds
Cl.N#CCCC(=O)N[C@H]1CC[C@H](CCN2CCN(c3cccc(C(F)(F)F)c3)CC2)CC1 = 230 °C
CN(C)c1cccc(N2CCN(CC[C@H]3CC[C@H](NC(=O)CC#N)CC3)CC2)c1 = 177 °C
CCOCC(=O)N[C@H]1CC[C@H](CCN2CCN(c3ccc(F)cc3F)CC2)CC1 = 130 °C

Now for the compound whose melting point we want.
Prompt: Specify melting point for CCC(=O)C(=O)N1CCC(CCN2CCN(c3cccc(C(F)(F)F)c3)CC2)CC1.Cl and stop.
Completion: 148 °C

---

So basically: is melting point under 200 °C? Then met. Not under? Then not met.

COCCNC(=O)C[C@H]1CC[C@H](CCN2CCN(c3cccc(C(F)(F)F)c3)CC2)CC1.Cl = met

Prompt: Item CC(=O)CN1CCC(CCN2CCN(c3cc(C(C)(C)C)nc(C(C)(C)C)n3)CC2)CC1.Cl.Cl : melting point beneath 200 °C, strictly?
Completion: not met

Prompt: Does this compound meet the criterion melting point < 200 °C? CCCOCC(=O)N[C@H]1CC[C@H](CCN2CCN(c3cc(C(F)(F)F)ccc3F)CC2)CC1.Cl
Completion: not met

Prompt: is_below(melting point, 200 °C) for N#CCCCC(=O)N[C@H]1CC[C@H](CCN2CCN(c3cc(F)c(F)cc3F)CC2)CC1 ?
Completion: met

---

melting point overview
I only need the number, in °C, no unit after it.

Some compounds with recorded melting point:
N#CCC(=O)N[C@H]1CC[C@H](CCN2CCN(c3ccc4c(c3)OCO4)CC2)CC1 [Example 315] = 226
N#CCCCC(=O)N[C@H]1CC[C@H](CCN2CCN(c3cc(F)c(F)c(F)c3F)CC2)CC1 [Example 98] = 180

Here's the next entry for you.
Prompt: Fill in reported melting point for this entry: N#CCC(=O)N[C@H]1CC[C@H](CCN2CCN(c3cccc4ncccc34)CC2)CC1 [Example 239]
Completion: 220

---

# reported melting point; entries follow

Cc1cc(Cl)cc(N2CCN(CC[C@H]3CC[C@H](NC(=O)CCCC#N)CC3)CC2)c1 = 165 °C

Moving on to another compound below.
Prompt: Give a short answer stating reported melting point for CCc1cccc(N2CCN(CC[C@H]3CC[C@H](NC(=O)CCCOC)CC3)CC2)c1 .
Completion: 130 °C

---

# reported melting point; entries follow
Please give a number only; it is taken to be in °C.

COc1ccccc1N1CCN(CC[C@H]2CC[C@H](NC(=O)CCCC#N)CC2)CC1 = 147
CC(C)(C#N)C(=O)N[C@H]1CC[C@H](CCN2CCN(c3cccc(C(F)(F)F)c3)CC2)CC1 = 150
Cc1ccc(N2CCN(CC[C@H]3CC[C@H](NC(=O)CCCC#N)CC3)CC2)cc1F = 180
CC(=O)CN1CCC(CCN2CCN(c3cccc4c3CCC4)CC2)CC1.Cl.Cl = 295
CCOc1ccccc1N1CCN(CC[C@H]2CC[C@H](NC(=O)CC#N)CC2)CC1 = 138

Prompt: Annotate the molecule CCc1ccc(F)c(N2CCN(CC[C@H]3CC[C@H](NC(=O)CCCC#N)CC3)CC2)c1 with its measured melting point.
Completion: 153

Prompt: Identify measured melting point associated with Cc1cc(C)cc(N2CCN(CC[C@H]3CC[C@H](NC(=O)CCC#N)CC3)CC2)c1
Completion: 175

Prompt: State its melting point: CC(=O)CN1CCC(CCN2CCN(c3cc(F)cc(Cl)c3)CC2)CC1
Completion: 107

---

property label: melting point
Reply with a number, then the unit it belongs to.

Please review the entries below; each comes with its answer.
CC(=O)CN1CCC(CCN2CCN(c3ccc(F)cc3)CC2)CC1.Cl.Cl = 270 °C
CC(=O)CN1CCC(CCN2CCN(c3ccccc3C(C)C)CC2)CC1.Cl.Cl = 260 °C
COc1cccc(N2CCN(CC[C@H]3CC[C@H](NC(=O)C4=CCCC4)CC3)CC2)c1 [Example 417] = 160 °C
N#CCC(=O)N[C@H]1CC[C@H](CCN2CCN(c3cc(F)c(F)c(F)c3F)CC2)CC1 [Example 708] = 214 °C
CCc1ccccc1C1=CCN(CC[C@H]2CC[C@H](NC(=O)CC#N)CC2)CC1 = 158 °C

Prompt: Item N#CCC(=O)N[C@H]1CC[C@H](CCN2CCN(c3cccc(-c4ncco4)c3)CC2)CC1 [Example 530] : provide melting point
Completion: 185 °C

Prompt: Fill in melting point for record CC(=O)CN1CCC(CCN2CC=C(c3cc(F)cc(C(F)(F)F)c3)CC2)CC1.Cl.Cl
Completion: 287 °C

Prompt: State, in one line, measured melting point of CC(=O)CCC(=O)N[C@H]1CC[C@H](CCN2CCN(c3cccc(C(F)(F)F)c3)CC2)CC1 [Example 191]
Completion: 159 °C

Prompt: Consider the compound N#CCCCC(=O)N[C@H]1CC[C@H](CCN2CCN(c3ccc(Cl)c(C(F)(F)F)c3)CC2)CC1 [Example 756] and give its recorded melting point.
Completion: 126 °C

Prompt: Using known records, supply melting point for O=C(N[C@H]1CC[C@H](CCN2CCN(c3cccc(C(F)(F)F)c3)CC2)CC1)C1CCCO1 (stereo partly drawn) [Example 40]
Completion: 135 °C

Prompt: Report measured melting point; entry is CC(=O)CN1CCC(CCN2CCN(c3cccc4c3CCCC4)CC2)CC1.Cl.Cl
Completion: 320 °C

---

Listed compounds paired with reported melting point
Could you kindly put the unit after your number?

Study these solved cases before continuing.
Cc1ccc(N2CCN(CC[C@H]3CC[C@H](NC(=O)CC#N)CC3)CC2)c(F)c1 = 197 °C
O=C(CC(F)(F)F)N[C@H]1CC[C@H](CCN2CCN(c3ccc(F)cc3F)CC2)CC1 = 184 °C
CC(=O)CN1CCC(CCN2CCN(c3cccc(S(C)(=O)=O)c3)CC2)CC1.Cl.Cl = 260 °C

Shift focus to the following entry.
Prompt: Please give measured melting point of the following entry: O=C(N[C@H]1CC[C@H](CCN2CCN(c3cc(C(F)(F)F)ccc3F)CC2)CC1)C1=CCCC1
Completion: 199 °C
